# TARGET UNDER TEST: T1, recombinant human VEGF165 (human, UniProt P15692-4 27-191, biotinylated (Sulfo-NHS-LC-Biotin) in the competition assays)
# T1 construct: also called hVEGF165; rhVEGF165
# T1 sequence (P15692 other isoform, or with tags, fused parts or gaps limits assumed): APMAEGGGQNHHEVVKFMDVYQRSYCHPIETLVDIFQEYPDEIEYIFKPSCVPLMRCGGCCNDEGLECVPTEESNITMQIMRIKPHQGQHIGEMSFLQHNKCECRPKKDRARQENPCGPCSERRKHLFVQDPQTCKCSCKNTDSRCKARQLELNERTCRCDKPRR
# ASSAY COMMENT: Biacore, periplasmic extract, VEGF165 chip, two phase decay fit
# Set-up: unit not given here
OUTCOME MEASURE: kd(fast)

VEGFBII27D08 (VHH, not shown: small tags and cut ends) VHH: EVQLVESGGGLVQTGDSLRLSCAASGRTFSSYSMGWFRQAQGKEREFVVAISSGGYKYDSVSLEGRFTISRDNTQNTVYLQINSLKPEDTAVYYCAASRAYGSGRLRLADTYDYWGQGTQVTVSS	0.024
VEGFBII30C09 (VHH, not shown: small tags and cut ends) VHH: EVQLVESGGGLVQPGDSLKLSCIASGRTSSSYSMGWFRQAQGQEREFVVAISSGGYIYDSVSLQGRFTISRDNTKNTVYLQTPSLKPEDTAVYYCAASRAYGSSRLRLADTYDYWGQGTQVTVSS	0.015
VEGFBII24C04 (VHH, not shown: small tags and cut ends, also purified from E. coli TG1; also called VEGFBII24C4) VHH: EVQLVESGGGLVQPGDSLKLSCVASGRTSSSYSMGWFRQAQGKEREFVVAISSGGYIYDSVSLQGRFTISRDNTKNTVYLQTPSLKPEDTAVYYCAASRAYGSSRLRLADTYDYWGQGTQVTVSS	0.013

[a] VEGFBII42A05 (VHH, not shown: small tags and cut ends) VHH: EVQLVESGGGLVQPGDSLKLSCAFSGRTFSSYSMGWFRQAQGKEREFVVAISSSGGYIYDSVSLEGRFTISRDNTKNTVYLQMPSLKPEDTADYYCAASRAYGSSRLRLADTYDYWGQGTQVTVSS
[b] VEGFBII23F11 (VHH, not shown: small tags and cut ends) VHH: EVQLVESGGGLVQPGDSLKLSCAFSGRTFSSYSMGWFRQAQGKEREFVVAISSGGGYIYDSVSLEGRFTISRDNTKNTVYLQTPSLKPEDTADYYCAASRAYGSSRLRLADTYDYWGQGTQVTVSS
[c] VEGFBII62A09 (VHH, not shown: small tags and cut ends) VHH: EVQLVESGGDLVQPGDSLKLSCAASGRTFSSYSMGWFRQAQGKEREFVVAISSSGGYIYDSVSLEGRFTISRDNTKNTVYLQTPSLKPEDTAVYYCAASRAYGSSRLRLADTYDYWGQGTQVTVSS
[d] VEGFBII61A01 (VHH, not shown: small tags and cut ends) VHH: EVQLVESGGGLVQAGGSLRLSCAFSGRTFSSYSMGWFRQAQGKEREFVVAISSGGYKYDAVSLEGRFTISRDNTKNTVYLQTPSLKPEDTAVYYCAASRAYASSRLRLADTYDYWGQGTQVTVSS
Exercise: Descending sort on kd(fast) required. Hello, could you send the labels back in the order asked? Thank you.
Key: c, b, a, d
